target: thrombin (Homo sapiens); assay: thrombin enzyme inhibition assay (Ki*); assay type: biochemical
Positions of bridges follow the written chain, without caps; N, C: chain ends. No end group written: not given here.
measured_endpoint: Ki

// query I have this sequence here, VREVCSEQAETGPCRAMISRWYFDVTEGKCAPFFYGGCGGNRNNFDTEEYCMAVCGSA (disulfide 5-55, 14-38, 30-51) [APPI] , and I need its recorded Ki.
// result > 10 µM

###

molecular target: FXa (Homo sapiens); construct: purchased Haematologic Technologies Inc. (Essex Jct., Vt.); assay: FXa enzyme inhibition assay (Ki*); type: biochemical
Sequence (P00742 235-488 limits assumed): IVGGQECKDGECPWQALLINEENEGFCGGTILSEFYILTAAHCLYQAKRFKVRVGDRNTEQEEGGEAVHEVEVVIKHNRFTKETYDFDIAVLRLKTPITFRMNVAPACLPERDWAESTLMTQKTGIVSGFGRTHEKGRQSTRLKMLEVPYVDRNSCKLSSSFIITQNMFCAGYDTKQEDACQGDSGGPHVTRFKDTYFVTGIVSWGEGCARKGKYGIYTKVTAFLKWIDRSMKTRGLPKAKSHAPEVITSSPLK
Sequence (P00742 41-179 limits assumed): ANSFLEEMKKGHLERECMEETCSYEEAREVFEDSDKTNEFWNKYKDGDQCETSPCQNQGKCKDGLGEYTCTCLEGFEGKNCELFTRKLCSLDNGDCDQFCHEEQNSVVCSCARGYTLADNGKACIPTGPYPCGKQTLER
Positions of bridges follow the written chain, without caps; N, C: chain ends. No end group written: not given here.
measured_endpoint: Ki

// query I have this sequence here, VREVCSEQAETGPCRAMISRWYFDVTEGKCAPFFYGGCGGNRNNFDTEEYCMAVCGSA (disulfide 5-55, 14-38, 30-51) [APPI] , and I need its recorded Ki.
// result > 10 µM

The measurements presented in this section are drawn from patent US5795954A.
